target: PLCδ-PH (PH domain of rat PLC-δ1) (Rattus norvegicus, UniProt P10688); construct: initiator methionine (N); made in house; host or cells: Escherichia coli (pET11a, T7 system); assay: Isothermal titration calorimetry of inositol polyphosphate / PIP2 vesicle binding to PLCδ-PH; details: ITC; read-out: KD (dissociation constant)
measurement.kind: Kd (nM)
All answers are understood in nM, so give the number only.

Request - read-out Kd | tested on PLCδ-PH (PH domain of rat PLC-δ1) (Rattus norvegicus, UniProt P10688) | compound O=P(O)(O)O[C@@H]1[C@@H](O)[C@@H](O)[C@@H](OP(=O)(O)OC[C@H](O)CO)[C@H](O)[C@H]1OP(=O)(O)O 400

Form: Entry = O=P(O)(O)O[C@@H]1[C@H](O)[C@H](O)[C@@H](OP(=O)(O)O)[C@H](OP(=O)(O)O)[C@H]1O [I(145)P3, D-myo-inositol 1,4,5-trisphosphate] | System = PLCδ-PH (PH domain of rat PLC-δ1) (Rattus norvegicus, UniProt P10688) | Kd = ____ 200

---

Would you mind telling me the reported pKd of each entry?
Target: PLCδ-PH (PH domain of rat PLC-δ1) (Rattus norvegicus, UniProt P10688)
Construct: initiator methionine (N); made in house; host or cells: Escherichia coli (pET11a, T7 system)
Sequence (P10688 20-136): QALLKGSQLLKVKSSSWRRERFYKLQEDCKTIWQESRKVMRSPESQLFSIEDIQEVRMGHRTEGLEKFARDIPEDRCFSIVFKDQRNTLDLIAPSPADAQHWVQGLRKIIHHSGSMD
Test: Isothermal titration calorimetry of inositol polyphosphate / PIP2 vesicle binding to PLCδ-PH
Conditions: mean of the titrations; read-out: KD
Please express pKd as -log10 of the molar concentration.

# get_value(readout='pKd', item= O=P(O)(O)O[C@@H]1[C@@H](O)[C@@H](O)[C@@H](OP(=O)(O)OC[C@H](O)CO)[C@H](O)[C@H]1OP(=O)(O)O ) 6.44

# get_value(readout='pKd', item= O=P(O)(O)O[C@@H]1[C@@H](OP(=O)(O)O)[C@H](OP(=O)(O)O)[C@H](O)[C@H](OP(=O)(O)O)[C@H]1OP(=O)(O)O ) 5.55

Quick check: pKd of O=P(O)(O)O[C@@H]1[C@H](O)[C@H](O)[C@@H](OP(=O)(O)O)[C@H](OP(=O)(O)O)[C@H]1O [I(145)P3, D-myo-inositol 1,4,5-trisphosphate] ? 6.68

---

Please provide measured pKd for the entries that follow.
Molecular target: PLCδ-PH (Rattus norvegicus, UniProt P10688)
Construct: initiator methionine (N); made in house; host or cells: Escherichia coli (pET11a, T7 system)
Sequence (P10688 20-136): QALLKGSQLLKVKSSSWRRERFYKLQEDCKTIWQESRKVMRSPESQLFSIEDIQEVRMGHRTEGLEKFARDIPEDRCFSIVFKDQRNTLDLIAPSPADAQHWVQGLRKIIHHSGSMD
Experiment: Spin-column competition assay for 3H-I(145)P3 binding to PLCδ-PH
Settings: from concentrations required to reduce 3H-I(145)P3 binding by 50%; read-out: KD from competition assay
Worth noting: pKd values are minus log10 of concentrations stated in mol/L.

Dear colleague, I am looking for the recorded pKd of the following compound: O=P(O)(O)OC1C(O)C(O)C(OP(=O)(O)O)C(OP(=O)(O)O)C1O (single isomer, unassigned) [D-I(245)P3] 5.12

Record request: pKd value, item O=P(O)(O)O[C@@H]1[C@@H](O)[C@H](OP(=O)(O)O)[C@@H](OP(=O)(O)O)[C@H](O)[C@@H]1O [L-I(145)P3] 4.89

---

molecular target: PLCδ-PH (Rattus norvegicus, UniProt P10688); construct: initiator methionine (N); made in house; host or cells: Escherichia coli (pET11a, T7 system); test: Spin-column competition assay for 3H-I(145)P3 binding to PLCδ-PH; details: ratio of molar excess for 50% competition to that of unlabeled I(145)P3, multiplied by 0.2 μM; read-out: KD (μM) by competition assay
Exercise: for every item that follows, state its recorded Kd.

Need Kd of O=P(O)(O)O[C@H]1[C@H](OP(=O)(O)O)[C@@H](OP(=O)(O)O)[C@H](O)[C@@H](O)[C@H]1OP(=O)(O)O , thanks. 12 µM

Can you look up the measured Kd of O=P(O)(O)O[C@@H]1[C@@H](O)[C@H](OP(=O)(O)O)[C@@H](OP(=O)(O)O)[C@H](O)[C@@H]1O for me? 8.1 µM

I'd like to know its Kd. The compound in question is O=P(O)(O)OC1[C@@H](O)[C@H](O)C(O)[C@H](O)[C@H]1O (stereo partly shown) [I-2-P, inositol-2-phosphate] > 60 µM

Look at this compound and give its reported Kd. O=P(O)(O)O[C@@H]1[C@@H](O)[C@@H](O)[C@@H](OP(=O)(O)OC[C@H](O)CO)[C@H](O)[C@H]1OP(=O)(O)O 0.45 µM

---

Biological target: Dyn-PH (Homo sapiens)
Sequence (Q05193 519-625 limits assumed): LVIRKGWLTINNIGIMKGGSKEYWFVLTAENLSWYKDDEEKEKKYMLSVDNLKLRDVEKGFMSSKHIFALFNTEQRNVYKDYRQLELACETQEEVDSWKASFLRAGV
pKd: −log10 of the molar value.
For each record, write down the corresponding pKd.

Name the reported pKd value associated with the molecule O=P(O)(O)OC1C(OP(=O)(O)O)C(OP(=O)(O)O)C(OP(=O)(O)O)C(OP(=O)(O)O)C1OP(=O)(O)O (centres unmarked) ~4.00

pKd for O=P(O)(O)O[C@@H]1[C@@H](OP(=O)(O)O)[C@H](OP(=O)(O)O)[C@H](O)[C@H](OP(=O)(O)O)[C@H]1OP(=O)(O)O ? ~4.00

---

molecular target: PLCδ-PH (Rattus norvegicus, UniProt P10688); construct: initiator methionine (N); made in house; host or cells: Escherichia coli (pET11a, T7 system); assay: Spin-column competition assay for 3H-I(145)P3 binding to PLCδ-PH; settings: ratio of molar excess for 50% competition to that of unlabeled I(145)P3, multiplied by 0.2 μM; read-out: KD (μM) by competition assay
Can you tell me Kd for the items I'm about to list?

Endpoint output: Kd of O=P(O)(O)OC1C(O)C(O)C(OP(=O)(O)O)C(OP(=O)(O)O)C1O (single isomer, unassigned) [D-I(134)P3] . Value? > 12 µM

For the compound shown here, O=P(O)(OCC(O)CO)OC1C(O)C(O)C(O)C(O)C1O (stereo not shown) [GPI, 1-(a-glycerophosphoryl)-inositol] , give the reported Kd. > 60 µM

For O=S(=O)(O)OC1C(OS(=O)(=O)O)C(OS(=O)(=O)O)C(OS(=O)(=O)O)C(OS(=O)(=O)O)C1OS(=O)(=O)O (stereo not shown) [I(SO4)6, inositol hexasulfate] , what is its reported Kd? > 60 µM

Using the record for O=P(O)(O)O[C@H]1[C@H](O)[C@@H](OP(=O)(O)O)[C@H](OP(=O)(O)O)[C@@H](OP(=O)(O)O)[C@H]1O [D-I(1345)P4] , report its Kd. > 2 µM

Kd lookup needed for O=P(O)(O)O[C@@H]1[C@@H](O)[C@H](O)[C@H](O)[C@H](O)[C@H]1OP(=O)(O)O [D-I(45)P2] , thanks. > 12 µM

Which Kd is reported for this compound? O=P(O)(O)O[C@H]1[C@H](O)[C@@H](O)[C@H](OP(=O)(O)O)[C@@H](O)[C@H]1O [D-I(14)P2] > 12 µM

Item under review: O=P(O)(O)O[C@@H]1C(O)[C@@H](OP(=O)(O)O)[C@@H](O)C(O)[C@H]1O (stereo partly drawn) [D-I(24)P2] . Reported Kd? > 12 µM
